Biological target: T1, recombinant Glypican-1 (R&D systems 4519-GP-050) (Homo sapiens (Human), UniProt P35052 24-530)
T1 construct: Bought protein
T1 sequence: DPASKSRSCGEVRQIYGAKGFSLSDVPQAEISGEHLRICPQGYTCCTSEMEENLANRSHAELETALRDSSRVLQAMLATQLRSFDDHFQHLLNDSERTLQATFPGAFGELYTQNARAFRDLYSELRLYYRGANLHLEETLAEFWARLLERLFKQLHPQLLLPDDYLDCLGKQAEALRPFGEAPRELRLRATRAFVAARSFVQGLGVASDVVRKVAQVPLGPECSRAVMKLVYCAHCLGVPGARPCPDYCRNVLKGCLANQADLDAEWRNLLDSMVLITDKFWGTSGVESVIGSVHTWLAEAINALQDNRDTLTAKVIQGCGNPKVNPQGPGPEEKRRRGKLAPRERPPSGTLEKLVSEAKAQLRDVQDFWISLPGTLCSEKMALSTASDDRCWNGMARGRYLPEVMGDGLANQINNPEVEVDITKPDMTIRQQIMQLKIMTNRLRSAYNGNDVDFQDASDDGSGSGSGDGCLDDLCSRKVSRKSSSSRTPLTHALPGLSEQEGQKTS
Assay: Biacore 3000 (SPR): antibody captured on rabbit anti-mouse IgG on a CM5 chip, recombinant Glypican-1 added at various concentrations; BIAevaluation 4.1
PROPERTY_LABEL: kon (M⁻¹ s⁻¹)
Write the number in M⁻¹ s⁻¹ without appending the unit.

Query string: Determine its reported kon: anti-GPC-1 antibody 1-5 (antibody, V domains shown, detection was with anti-mouse IgG and the control was mouse IgG2a; also called #2; clone 1-5) VH: AVTLDESGGGLQTPGGALSLVCKASGFKFRSYDMYWVRQAPGKGLEYVAGIINTGRETYYGAAVKGRATISRDNGRSTVRLQLNNLRAEDTGTYFCAKGAAWNYAGSIDAWGHGTEVIVST VL: ALTQPASVSANPGETVKITCSGGSGSYGWYQQKSPGSAPVTVIYGDNKRPTDISSRFSGSTSGSTNTLTITGVQAEDEAVYFCGSRDNTYAGIFGAGTTLTV
Result string: 45500
